These entries and their values trace back to ChEMBL document CHEMBL1155172.

# Procedure details: Drug level in New Zealand white rabbit articular cartilage assessed as [14C]dalbavancin level per gram of tissue at 20 mg/kg, iv after 72 hrs by autoradioluminography
# Format: ADME, organism-based, Oryctolagus cuniculus
# Design: dose 20 mg/kg, route intravenous
# Conditions: in vivo
Quantity name: Drug uptake (µg/g)
Answer format: numeric, µg/g implied, no suffix.

Drug uptake for CN[C@H]1C(=O)N[C@@H]2Cc3ccc(cc3)Oc3cc4cc(c3O[C@@H]3O[C@H](C(=O)O)[C@@H](O)[C@H](O)[C@H]3NC(=O)CCCCCCCCC(C)C)Oc3ccc(cc3Cl)[C@@H](O)[C@@H]3NC(=O)[C@H](NC(=O)[C@@H]4NC(=O)[C@@H](NC2=O)c2cc(cc(O)c2Cl)Oc2cc1ccc2O)c1ccc(O)c(c1)-c1c(O[C@H]2O[C@H](CO)[C@@H](O)[C@H](O)[C@@H]2O)cc(O)cc1[C@@H](C(=O)NCCCN(C)C)NC3=O [DALBAVANCIN] ?
8.04

----------
# Procedure details: Drug level in New Zealand white rabbit epiphyseal plate assessed as [14C]dalbavancin level per gram of tissue at 20 mg/kg, iv after 120 hrs by autoradioluminography
# Assay type: ADME, organism-based, Oryctolagus cuniculus
# Design: dose 20 mg/kg, route intravenous
# Conditions: in vivo
Quantity name: Drug uptake (µg/g)
Answer format: numeric, µg/g implied, no suffix.

Drug uptake for CN[C@H]1C(=O)N[C@@H]2Cc3ccc(cc3)Oc3cc4cc(c3O[C@@H]3O[C@H](C(=O)O)[C@@H](O)[C@H](O)[C@H]3NC(=O)CCCCCCCCC(C)C)Oc3ccc(cc3Cl)[C@@H](O)[C@@H]3NC(=O)[C@H](NC(=O)[C@@H]4NC(=O)[C@@H](NC2=O)c2cc(cc(O)c2Cl)Oc2cc1ccc2O)c1ccc(O)c(c1)-c1c(O[C@H]2O[C@H](CO)[C@@H](O)[C@H](O)[C@@H]2O)cc(O)cc1[C@@H](C(=O)NCCCN(C)C)NC3=O [DALBAVANCIN] ?
10.3

----------
# Procedure details: Drug level in New Zealand white rabbit articular cartilage assessed as [14C]dalbavancin level per gram of tissue at 20 mg/kg, iv after 168 hrs by autoradioluminography
# Format: ADME, organism-based, Oryctolagus cuniculus
# Parameters: dose 20 mg/kg, route intravenous
# Conditions: in vivo
Quantity name: Drug uptake

Drug uptake for `CN[C@H]1C(=O)N[C@@H]2Cc3ccc(cc3)Oc3cc4cc(c3O[C@@H]3O[C@H](C(=O)O)[C@@H](O)[C@H](O)[C@H]3NC(=O)CCCCCCCCC(C)C)Oc3ccc(cc3Cl)[C@@H](O)[C@@H]3NC(=O)[C@H](NC(=O)[C@@H]4NC(=O)[C@@H](NC2=O)c2cc(cc(O)c2Cl)Oc2cc1ccc2O)c1ccc(O)c(c1)-c1c(O[C@H]2O[C@H](CO)[C@@H](O)[C@H](O)[C@@H]2O)cc(O)cc1[C@@H](C(=O)NCCCN(C)C)NC3=O` ?
7.48 µg/g

----------
# Procedure details: Drug level in New Zealand white rabbit synovial space assessed as [14C]dalbavancin level per gram of tissue at 20 mg/kg, iv after 120 hrs by autoradioluminography
# Assay type: ADME, organism-based, Oryctolagus cuniculus
# Design: dose 20 mg/kg, route intravenous
# Conditions: in vivo
Quantity name: Drug uptake (µg/g)
Answer format: numeric, µg/g implied, no suffix.

Drug uptake for CN[C@H]1C(=O)N[C@@H]2Cc3ccc(cc3)Oc3cc4cc(c3O[C@@H]3O[C@H](C(=O)O)[C@@H](O)[C@H](O)[C@H]3NC(=O)CCCCCCCCC(C)C)Oc3ccc(cc3Cl)[C@@H](O)[C@@H]3NC(=O)[C@H](NC(=O)[C@@H]4NC(=O)[C@@H](NC2=O)c2cc(cc(O)c2Cl)Oc2cc1ccc2O)c1ccc(O)c(c1)-c1c(O[C@H]2O[C@H](CO)[C@@H](O)[C@H](O)[C@@H]2O)cc(O)cc1[C@@H](C(=O)NCCCN(C)C)NC3=O [DALBAVANCIN] ?
2.66

----------
# Procedure details: Drug level in New Zealand white rabbit epiphyseal plate assessed as [14C]dalbavancin level per gram of tissue at 20 mg/kg, iv after 72 hrs by autoradioluminography
# Assay type: ADME, organism-based, Oryctolagus cuniculus
# Parameters: dose 20 mg/kg, route intravenous
# Conditions: in vivo
Quantity name: Drug uptake
Remember to quote the unit after the number.

Drug uptake for `CN[C@H]1C(=O)N[C@@H]2Cc3ccc(cc3)Oc3cc4cc(c3O[C@@H]3O[C@H](C(=O)O)[C@@H](O)[C@H](O)[C@H]3NC(=O)CCCCCCCCC(C)C)Oc3ccc(cc3Cl)[C@@H](O)[C@@H]3NC(=O)[C@H](NC(=O)[C@@H]4NC(=O)[C@@H](NC2=O)c2cc(cc(O)c2Cl)Oc2cc1ccc2O)c1ccc(O)c(c1)-c1c(O[C@H]2O[C@H](CO)[C@@H](O)[C@H](O)[C@@H]2O)cc(O)cc1[C@@H](C(=O)NCCCN(C)C)NC3=O` ?
11.7 µg/g

----------
# Procedure details: Drug level in New Zealand white rabbit articular cartilage assessed as [14C]dalbavancin level per gram of tissue at 20 mg/kg, iv after 12 hrs by autoradioluminography
# Type: ADME, organism-based, Oryctolagus cuniculus
# Set-up: dose 20 mg/kg, route intravenous
# Conditions: in vivo
Quantity name: Drug uptake (µg/g)
Answer format: numeric, µg/g implied, no suffix.

Drug uptake for CN[C@H]1C(=O)N[C@@H]2Cc3ccc(cc3)Oc3cc4cc(c3O[C@@H]3O[C@H](C(=O)O)[C@@H](O)[C@H](O)[C@H]3NC(=O)CCCCCCCCC(C)C)Oc3ccc(cc3Cl)[C@@H](O)[C@@H]3NC(=O)[C@H](NC(=O)[C@@H]4NC(=O)[C@@H](NC2=O)c2cc(cc(O)c2Cl)Oc2cc1ccc2O)c1ccc(O)c(c1)-c1c(O[C@H]2O[C@H](CO)[C@@H](O)[C@H](O)[C@@H]2O)cc(O)cc1[C@@H](C(=O)NCCCN(C)C)NC3=O [DALBAVANCIN] ?
25.1

----------
# Procedure details: Drug level in New Zealand white rabbit articular cartilage assessed as [14C]dalbavancin level per gram of tissue at 20 mg/kg, iv after 24 hrs by autoradioluminography
# Format: ADME, organism-based, Oryctolagus cuniculus
# Parameters: dose 20 mg/kg, route intravenous
# Conditions: in vivo
Quantity name: Drug uptake (µg/g)
Answer format: numeric, µg/g implied, no suffix.

Drug uptake for `CN[C@H]1C(=O)N[C@@H]2Cc3ccc(cc3)Oc3cc4cc(c3O[C@@H]3O[C@H](C(=O)O)[C@@H](O)[C@H](O)[C@H]3NC(=O)CCCCCCCCC(C)C)Oc3ccc(cc3Cl)[C@@H](O)[C@@H]3NC(=O)[C@H](NC(=O)[C@@H]4NC(=O)[C@@H](NC2=O)c2cc(cc(O)c2Cl)Oc2cc1ccc2O)c1ccc(O)c(c1)-c1c(O[C@H]2O[C@H](CO)[C@@H](O)[C@H](O)[C@@H]2O)cc(O)cc1[C@@H](C(=O)NCCCN(C)C)NC3=O` ?
21.4

----------
# Procedure details: Drug level in New Zealand white rabbit skeletal muscle assessed as [14C]dalbavancin level per gram of tissue at 20 mg/kg, iv after 336 hrs by autoradioluminography
# Format: ADME, organism-based, Oryctolagus cuniculus
# Parameters: dose 20 mg/kg, route intravenous
# Conditions: in vivo
Quantity name: Drug uptake (µg/g)
Answer format: numeric, µg/g implied, no suffix.

Drug uptake for `CN[C@H]1C(=O)N[C@@H]2Cc3ccc(cc3)Oc3cc4cc(c3O[C@@H]3O[C@H](C(=O)O)[C@@H](O)[C@H](O)[C@H]3NC(=O)CCCCCCCCC(C)C)Oc3ccc(cc3Cl)[C@@H](O)[C@@H]3NC(=O)[C@H](NC(=O)[C@@H]4NC(=O)[C@@H](NC2=O)c2cc(cc(O)c2Cl)Oc2cc1ccc2O)c1ccc(O)c(c1)-c1c(O[C@H]2O[C@H](CO)[C@@H](O)[C@H](O)[C@@H]2O)cc(O)cc1[C@@H](C(=O)NCCCN(C)C)NC3=O` ?
0.8

----------
# Procedure details: Drug level in New Zealand white rabbit nucleus pulposus assessed as [14C]dalbavancin level per gram of tissue at 20 mg/kg, iv after 12 hrs by liquid scintillation counting method
# Type: ADME, organism-based, Oryctolagus cuniculus
# Set-up: dose 20 mg/kg, route intravenous
# Conditions: in vivo
Quantity name: Drug uptake (µg/g)
Answer format: numeric, µg/g implied, no suffix.

Drug uptake for `CN[C@H]1C(=O)N[C@@H]2Cc3ccc(cc3)Oc3cc4cc(c3O[C@@H]3O[C@H](C(=O)O)[C@@H](O)[C@H](O)[C@H]3NC(=O)CCCCCCCCC(C)C)Oc3ccc(cc3Cl)[C@@H](O)[C@@H]3NC(=O)[C@H](NC(=O)[C@@H]4NC(=O)[C@@H](NC2=O)c2cc(cc(O)c2Cl)Oc2cc1ccc2O)c1ccc(O)c(c1)-c1c(O[C@H]2O[C@H](CO)[C@@H](O)[C@H](O)[C@@H]2O)cc(O)cc1[C@@H](C(=O)NCCCN(C)C)NC3=O` ?
0.86
